Numbers sourced from PubChem BioAssay (NCI).

assay: NCI Yeast Anticancer Drug Screen. Data for the mlh1 rad18 strain (AID 175); details: S. cerevisiae mlh1 rad18 strain growth inhibition, hits give high values; at 50.0 µM unless noted
Compounds without any hit were thinned out: in the full panel of roughly 79,000, 15% have a hit. Active and inactive are the calls of the source. No stated cut-off is given here; in the data, active means growth inhibition above about 70%; inactive means the rest.
property label: growth inhibition

>>> endpoint_result("COC(=O)C1C(O)C(C)C(O)C(C)(O)/C=C/C=C(C)C(=O)Nc2c(C)c(OC(C)=O)c3c(c2O)C(=O)C(C)=C2OCOC(=C23)C(C)=CC(C)(O)C(O)C(C)C1OC(C)=O (stereo not given)")
"18.8% (inactive)"
>>> endpoint_result("CC(CO)Cc1ccccc1 (stereo not given)")
"-9.7% (inactive)"
>>> endpoint_result("O=c1c(-c2ccccc2)c[nH]c2ccccc12")
"44.5% (inactive)"
>>> endpoint_result("C=C1c2nc3ccccc3n2C=C(c2ccccc2)N1c1ccc(OC)cc1")
"7.05% (inactive)"
>>> endpoint_result("CCOc1nc(=O)n(C2OC(CO)C(O)C2O)s1 (stereo not given)")
"2.5% (inactive)"
>>> endpoint_result("N#CC(C(=O)NN)C1CCCCC1 (stereo not given)")
"-11.7% (inactive)"
>>> endpoint_result("NC1CC(c2ccccc2)NC(c2ccccc2)C1 (stereo not given)")
"16.2% (inactive)"
>>> endpoint_result("CCCCCCCCC(=O)NCCOC")
"10.6% (inactive)"
>>> endpoint_result("NC(N)=Nc1ccc(-c2ccc(N=C(N)N)cc2)cc1")
"-7.95% (inactive)"
>>> endpoint_result("CCN(CC)CCC(=O)c1ccccc1")
"-7.85% (inactive)"
>>> endpoint_result("CC(=O)Sc1ccc2c(c1)-c1ccccc1C2=O")
"16.9% (inactive)"
>>> endpoint_result("C=CCN(N=O)C(=O)N(CCCCC(NC(C)=O)C(=O)NCc1ccccc1)Cc1ccccc1 (stereo not given)")
"-17.1% (inactive)"
>>> endpoint_result("Cc1c(CCN2CCOCC2)c(N2CCOCC2)n2c(nc3ccccc32)c1C#N")
"-15% (inactive)"
>>> endpoint_result("CCCCCCCCC1OC1CCCCCCCCOCC(O)CO (stereo not given)")
"-1.6% (inactive)"
>>> endpoint_result("OCCC1CCCCN1 (stereo not given)")
"54.5% (inactive)"
>>> endpoint_result("N#CC1(C(=O)c2ccccc2)C=Cc2ccccc2N1C(=O)c1ccccc1 (stereo not given)")
"-19.2% (inactive)"
>>> endpoint_result("CC1=C(C(=O)Nc2cc(=O)n(C)c(=O)n2C)C(c2cccc([N+](=O)[O-])c2)C(C(=O)Nc2cc(=O)n(C)c(=O)n2C)=C(C)N1")
"41.8% (inactive)"
>>> endpoint_result("O=S(=O)(Cl)c1ccc(Cl)cc1")
"-7.25% (inactive)"
>>> endpoint_result("CCOC(=O)c1c(-c2ccc([N+](=O)[O-])cc2)c(C=O)n(-c2ccccc2)c1C")
"6.7% (inactive)"
>>> endpoint_result("C=C(C)C(=NC(C)(C)C)Nc1ccc(C(=O)OCC)cc1")
"-45.6% (inactive)"
>>> endpoint_result("Nc1ccc(C(=O)O)cc1N")
"45.5% (inactive)"
>>> endpoint_result("N.N.N.N.O=C(O)C1OCCOCCOC(C(=O)O)C(C(=O)O)OCCOCCOC1C(=O)O.[Pt+2].[Pt+2] (stereo not given)")
"-9.2% (inactive)"
>>> endpoint_result("Nc1nc2cc3nc(N)c(N)nc3cc2nc1N")
"15.1% (inactive)"
>>> endpoint_result("Cc1ccc(C(CC(=O)C(C)(C)CN2CCCCC2)SCCS(=O)(=O)O)cc1 (stereo not given)")
"20% (inactive)"
>>> endpoint_result("CCOC(=O)/C(C#N)=C/c1cccc([N+](=O)[O-])c1")
"31.2% (inactive)"
>>> endpoint_result("CC1CCCN1CCOC(=O)C(c1ccccc1)C1CCCC1 (stereo not given)")
"11.2% (inactive)"
>>> endpoint_result("CCCN(CCC)C(=O)c1ccccc1C")
"2.9% (inactive)"
>>> endpoint_result("O=C1/C(=C/c2cccc(Br)c2)Cc2ccccc21")
"15.8% (inactive)"
>>> endpoint_result("O=[N+]([O-])c1ccc2c(c1)S(=O)c1ccccc1-2 (stereo not given)")
"-4.8% (inactive)"
>>> endpoint_result("Cc1c2noc1CCCCCCCCCCC2")
"17.9% (inactive)"
